# assayExplanation: soluble fraction after stress (log2 fold change); higher = more stays soluble; pooled small domains, quantitative proteomics;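 further: 20 min heating vs room temperature control held 20 min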
# experimentalParameters: stress: 75 degC
soluble fraction (log2) by entry:
Just the number, please, no unit after it.

Observe how each entry below is paired with its result.
HMGSLVVVPNLVGQNYDEVKLSTKYSDFEIVQKNTEYSEAPAGQIIKQDPEAGTKVKKHSTINVTVSK ... -0.167
HMTINPFSTLAVRELEILHYLLNGHRTKEIATNLGLKMNTVSTIKSNIFEKVKADSFTHLLQLAHVHQIS ... -1.07
HMRPKVADIDYFDGKTFTIEDGSKHSITTSEAKKIYFYLVKNGYVDDESHVTDAYRSAATSGTLA ... 0.0416

Answer with the recorded soluble fraction (log2) of HMYPATGTVVTAGGHLNMRSEPDRSGAILARIPNGTALTLTGKNGDWYAATYAGRSGYVSAQYISLS only. -0.421

* * *

soluble fraction (log2) by entry:
# assayExplanation: soluble fraction after stress (log2 fold change); higher = more stays soluble; pooled small domains, quantitative proteomics
# experimentalParameters: stress: 75 degC

Observe how each entry below is paired with its result.
HMQNEQIAFSKFLQEVDSGRVVQVEIQGNNIKGILSDGSKFYTYSPNYPELVGKLSEKGVNIVASPVE ... 0.196
HMDILPRMVASEMRAVGVPPERMTREEKGTVIRNLMNAGIHQMKGAVVEIARQLHLSEPTVYRYIKREKG ... -0.664
HMLTEEVEISLMDMTKPTQPATIKTTATIQKGATTVMPKQIKMPEGYEFYGNYKMDQPFELTMTFVVKKI ... -1.17
HMKERLLDPYKDFIVNYLQKYPYTPAAVMHDKLKESYPDFPKVDPKTIYNFVMLLRRDFNIPKV ... -0.842
HMDMQNIQKGLSAIEPGRTFSREEYYAAIQNGSEMLLKEDALAYSLRKSLSDGDIVRVSWNQYAIP ... -0.107

Answer with the recorded soluble fraction (log2) of HMTVNLPPKQKAAILLMSLPPEVSAQLFKELGPDEVHAITLEISKLPPISPDVRAQVIDEFLHSS only. -0.641

Answer with the recorded soluble fraction (log2) of HMGGDFVEHLKDLASEAPVIRLVNTIIGRVIDLRASDIHLEPFDDGLHVRYRVDGVIHPGELVPPRLS only. 0.0444

Answer with the recorded soluble fraction (log2) of HMKEYRKEGHLYFVTEDRNNEIYLWDFTDKPKHEFKEIITSVELQKVAKEGAMLQYKNGKYELYS only. -0.78

* * *

soluble fraction (log2) by entry:
# assayExplanation: soluble fraction after stress (log2 fold change); higher = more stays soluble; pooled small domains, quantitative proteomics
# experimentalParameters: stress: 75 degC
Just the number, please, no unit after it.

HMRISLKAQVYEYLKQAIINGDLKVGEIYSEQYFADKLSISRTPVREAILQLQHENMVEVKANRGIIVK ... -2.73
HMKFHENLIALRRREGWSQEELGNRIGVTRQTVSKWELGLTTPELEKLVQLADVFGMTTDQLVGR ... -0.295
HMDSKPNDLLFVYVSQLIRSLTLNSSKKDSELADELEVSISQIRIWLKKLINEQLIVKESKPVKYRWKG ... -2.84
HMRTAELEVWDDDELNDVVKLIQNNHNINTLKLRFQENVSFSGLSLIAAVLTKQSIILEIEY ... 0.235
HMDTPMYMAIIEEVRFQIANEILKEGEQLPSIRNLAKTLKVSVITVKRAYKELEEAGYITTIPAKGSKVS ... -1.16
HMGDTISVPAVRTLAYNKAMDILNAEGLKGIVADSVYDNHTAPGTVIEQNPKAGTIVKEGREVFLTIHA ... 0.117
HMNENYNLSKREKEVLDLLVNGKSYKVIATELAISYETVHSHIKKIYHKLHVSSIGEAVSKTIKQKIL ... -3.11

Answer with the recorded soluble fraction (log2) of HMGNNSIDIKDVIYNLVEISQLQAFDIVKHFKTWENLVNKPDELDTVIDGDSDIVDRIKYKIKSLS only. 0.344

All values here come from the domain aggregation screens of Martell et al. (2025).
